Tested on: SW-620 colon
Assay: NCI-60 one-dose screen, 48 h (100 = growth as untreated, 0 = no growth, -100 = all killed)
Conditions: 10 µM unless noted
This is part of a sample that, as a whole, favours compounds with a hit. Of some 83,000 tested, about 20% had one in any assay.
Answer not fulfilled if growth is under 70%, and fulfilled if it is 70% or more.

molecule=COc1cc(-c2nn(-c3ccc(C)cc3)cc2C(=O)O)ccc1O answer_label=fulfilled
molecule=Brc1ccc(-c2csc(Nc3ccccn3)n2)cc1 answer_label=fulfilled
molecule="OCC(O)c1nc2ccc3[nH]ncc3c2c2c1CCCC2 (stereo unspecified)" answer_label="not fulfilled"
molecule=O=C1/C(=C/c2ccccc2O)N=C2SCCCN12 answer_label=fulfilled
molecule="CCOc1cc2c(cc1OCC)C(c1cc(OC)c(O)cc1Cl)NCC2 (stereo unspecified)" answer_label=fulfilled
molecule=CCN=C1C=CC(=C(c2ccc(N)cc2)c2ccc(N(CC)CC)c(C)c2)C=C1 answer_label="not fulfilled"
molecule=COc1cc(/C=C/c2cc(O)c3cc(C(C)=O)c(=O)oc3c2)cc2c1O[C@]1(C)CC[C@@H](O)C(C)(C)[C@H]1C2 answer_label="not fulfilled"
molecule=c1ccc(-c2c(-c3ccccc3)[n+](Cc3ccc4ccccc4c3)c(-c3ccc(-c4nc5ccccc5s4)cc3)n2Cc2ccc3ccccc3c2)cc1 answer_label="not fulfilled"
molecule=O=C(N/N=C/c1ccccc1O)c1ccccc1Nc1ccnc(C(F)(F)F)c1 answer_label="not fulfilled"
molecule=COc1ccc(C(=S)N2CCN(c3cccc(Cl)c3)CC2)cc1 answer_label=fulfilled
molecule="COc1ccc(/C=N/C2=C(C#N)C(c3ccc(N(C)C)cc3)c3ccc4ccccc4c3O2)cc1 (stereo unspecified)" answer_label="not fulfilled"
molecule=COc1ccc(CN2c3ccccc3Sc3ccccc32)c(C(F)(F)F)c1 answer_label="not fulfilled"
molecule=COc1cccc(Nc2nc(SC)nc(-c3cccc([N+](=O)[O-])c3)c2C#N)c1 answer_label=fulfilled
molecule=CCOC(=O)c1csc(NC(=O)COc2cccc(/C=C3\CSc4ccccc4C3=O)c2)n1 answer_label="not fulfilled"
molecule=O=C1Nc2c(ccc(Cl)c2Cl)/C1=C\c1ccc(C(F)(F)F)cc1 answer_label="not fulfilled"
molecule=N=C(N)c1ccc(-c2ccc(-c3ccc4ccccc4c3)s2)s1 answer_label="not fulfilled"

###

Overview of reported growth across a group of compounds:
System: NCI-H23 lung
Experiment: NCI-60 one-dose screen, 48 h (100 = growth as untreated, 0 = no growth, -100 = all killed)
Conditions: 10 µM unless noted
The panel holds about 83,000 compounds, 20% with a hit somewhere; the sample as a whole holds those more often.
measurement-label: growth (%)

compound=O=C1c2c(O)cc(O)cc2-c2c(-c3ccc(O)cc3)oc3cc(O)cc1c23 target_or_system="NCI-H23 lung" quantitative_readout=39.9
compound="CC(=O)NCC1c2c(n(C)c3c(Cl)c(Cl)ccc23)C(=O)NC1(C)C (stereo not drawn)" target_or_system="NCI-H23 lung" quantitative_readout=90.3
compound=CNc1ccc(-c2cc(=O)oc3ccc(Cl)cc23)cc1 target_or_system="NCI-H23 lung" quantitative_readout=18.5
compound=Cc1ccc(NS(=O)(=O)c2ccc(-c3cnc(C4CC4)o3)cc2)cc1C target_or_system="NCI-H23 lung" quantitative_readout=21.2
compound=COc1ccccc1Nc1nc(-c2cc3cccc(C(F)(F)F)c3oc2=O)cs1 target_or_system="NCI-H23 lung" quantitative_readout=18.6
compound=CN1CCN(CCCOc2cccc3nc(Nc4cc(Cl)cc(Cl)c4)ccc23)CC1 target_or_system="NCI-H23 lung" quantitative_readout=36.7
compound=CSc1ccc(-c2n[nH]nc2-c2cc3ccccc3s2)cc1 target_or_system="NCI-H23 lung" quantitative_readout=61.5
compound=N#CN1CCC[C@H]1C(=O)N1CCc2c(-c3[nH]nc4ncccc34)cccc21 target_or_system="NCI-H23 lung" quantitative_readout=4.9
compound=C#CC(F)(F)[C@]1(O)CC[C@H]2[C@@H]3CCC4=CC(=O)CCC4=C3[C@@H](c3ccc(C(C)=O)cc3)C[C@@]21C target_or_system="NCI-H23 lung" quantitative_readout=38.5
compound=O=S(=O)(Nc1ccc(OC(F)F)cc1)c1ccc(-c2cnc(C3CC3)o2)cc1 target_or_system="NCI-H23 lung" quantitative_readout=73.4
compound=COc1ccc(C(=O)COc2ccc(/C=C3\Oc4ccc(OC)cc4C3=O)cc2)cc1 target_or_system="NCI-H23 lung" quantitative_readout=100
compound="CCCCCCN(CCCCCC)CCC(O)c1ccc2ccccc2c1 (stereo not drawn)" target_or_system="NCI-H23 lung" quantitative_readout=45.3
compound=CC[C@H]1OC(=O)[C@H](C)[C@@H](O[C@H]2C[C@@](C)(OC)[C@@H](O)[C@H](C)O2)[C@H](C)[C@@H](O[C@@H]2O[C@H](C)C[C@H](N(C)C)[C@H]2O)[C@](C)(O)C[C@H](C)CN(C)[C@H](C)[C@@H](O)[C@]1(C)O target_or_system="NCI-H23 lung" quantitative_readout=93.7
